- SYSTEM UNDER TEST: Tyrosine-protein kinase BTK (Homo sapiens)
- Sequence (Q06187 whole entry): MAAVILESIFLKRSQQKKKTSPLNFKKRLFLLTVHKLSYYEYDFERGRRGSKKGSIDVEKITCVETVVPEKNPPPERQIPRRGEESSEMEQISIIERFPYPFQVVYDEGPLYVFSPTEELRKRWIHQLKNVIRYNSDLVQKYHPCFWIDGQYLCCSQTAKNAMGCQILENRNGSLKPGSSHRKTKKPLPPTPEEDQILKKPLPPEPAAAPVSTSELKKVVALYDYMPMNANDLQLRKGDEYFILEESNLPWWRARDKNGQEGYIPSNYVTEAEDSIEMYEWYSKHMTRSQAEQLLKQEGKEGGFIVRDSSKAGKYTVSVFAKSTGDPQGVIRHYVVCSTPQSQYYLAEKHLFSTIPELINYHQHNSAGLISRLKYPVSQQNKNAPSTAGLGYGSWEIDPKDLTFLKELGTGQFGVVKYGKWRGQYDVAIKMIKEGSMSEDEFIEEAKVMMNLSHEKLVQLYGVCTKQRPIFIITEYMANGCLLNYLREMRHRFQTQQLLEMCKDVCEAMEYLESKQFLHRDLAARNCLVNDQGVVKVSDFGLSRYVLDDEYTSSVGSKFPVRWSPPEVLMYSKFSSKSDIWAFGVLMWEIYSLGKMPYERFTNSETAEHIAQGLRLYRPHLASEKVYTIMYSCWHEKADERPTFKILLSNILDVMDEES
- MEASUREMENT NOTES: Inhibition of BTK in human whole blood
ASSAY READOUT: pIC50
The read-out pIC50 is expressed as -log10 of concentration in moles per litre.

Query `Cn1cc(-c2cccc(-n3ncc4cc(C(C)(C)C)cc(F)c4c3=O)c2CO)cc(Nc2ccc(C(=O)N3CCOCC3)cn2)c1=O` yields pIC50 of 9.00

---

- SYSTEM UNDER TEST: Human immunodeficiency virus type 1 protease (Human immunodeficiency virus 1)
ASSAY READOUT: pKi
Note on pKi: it is the negative log10 of concentration, concentration in mol/L.

What the record says about `CC(C)[C@H]1Cc2cc(F)ccc2S(=O)(=O)N(C[C@@H](O)[C@H](Cc2ccccc2)NC(=O)O[C@H]2CCOC2)C1` : pKi is 9.44
